Every entry's value here was drawn from patent US20230321123A1.

SYSTEM_UNDER_TEST: CYP1A (Homo sapiens)
Sequence (P05177 2-516): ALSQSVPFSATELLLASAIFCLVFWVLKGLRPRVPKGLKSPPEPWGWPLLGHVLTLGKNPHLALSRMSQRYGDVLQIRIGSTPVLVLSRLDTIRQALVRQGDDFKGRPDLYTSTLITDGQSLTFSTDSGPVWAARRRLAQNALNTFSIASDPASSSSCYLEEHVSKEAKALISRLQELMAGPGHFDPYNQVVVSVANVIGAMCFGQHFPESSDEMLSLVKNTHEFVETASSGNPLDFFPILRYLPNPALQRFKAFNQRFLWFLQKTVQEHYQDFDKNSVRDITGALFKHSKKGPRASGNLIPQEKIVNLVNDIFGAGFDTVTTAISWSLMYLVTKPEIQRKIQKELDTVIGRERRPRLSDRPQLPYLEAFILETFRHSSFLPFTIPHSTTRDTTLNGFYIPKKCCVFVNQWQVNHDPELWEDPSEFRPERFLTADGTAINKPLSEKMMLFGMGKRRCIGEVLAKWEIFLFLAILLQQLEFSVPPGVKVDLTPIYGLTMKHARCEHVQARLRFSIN
TEST_SUMMARY: CYP inhibition CYP1A
Format: in vitro ADME
PROPERTY_MEASURED: IC50

Prompt: Any idea what IC50 was measured for Cc1ccc(NC(=O)C(S)CC(C)C)cc1 (stereo not shown) ?
Response: > 25 µM

====

SYSTEM_UNDER_TEST: CYP2C19 (Homo sapiens)
Sequence (P33261 whole entry): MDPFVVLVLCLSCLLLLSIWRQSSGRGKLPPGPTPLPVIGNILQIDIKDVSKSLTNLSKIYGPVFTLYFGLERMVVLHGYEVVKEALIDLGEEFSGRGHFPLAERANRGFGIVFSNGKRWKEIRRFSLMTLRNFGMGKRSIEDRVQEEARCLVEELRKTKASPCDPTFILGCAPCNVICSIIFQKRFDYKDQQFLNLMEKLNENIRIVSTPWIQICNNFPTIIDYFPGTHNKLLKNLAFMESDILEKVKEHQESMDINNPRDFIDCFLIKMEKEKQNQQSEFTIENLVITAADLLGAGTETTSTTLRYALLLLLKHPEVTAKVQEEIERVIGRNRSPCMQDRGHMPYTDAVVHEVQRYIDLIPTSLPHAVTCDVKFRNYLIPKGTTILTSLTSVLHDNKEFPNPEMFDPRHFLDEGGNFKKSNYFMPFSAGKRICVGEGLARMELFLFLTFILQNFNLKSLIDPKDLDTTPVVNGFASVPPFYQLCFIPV
PROPERTY_MEASURED: pIC50
Answers are plain numbers, as −log10 of the molar value.

Prompt: Any idea what pIC50 was measured for Cc1ccc(NC(=O)C(S)CC(C)C)cc1 (stereo not shown) ?
Response: 6.00

====

SYSTEM_UNDER_TEST: LasB (Pseudomonas aeruginosa)
Sequence (Q02RJ6 198-498): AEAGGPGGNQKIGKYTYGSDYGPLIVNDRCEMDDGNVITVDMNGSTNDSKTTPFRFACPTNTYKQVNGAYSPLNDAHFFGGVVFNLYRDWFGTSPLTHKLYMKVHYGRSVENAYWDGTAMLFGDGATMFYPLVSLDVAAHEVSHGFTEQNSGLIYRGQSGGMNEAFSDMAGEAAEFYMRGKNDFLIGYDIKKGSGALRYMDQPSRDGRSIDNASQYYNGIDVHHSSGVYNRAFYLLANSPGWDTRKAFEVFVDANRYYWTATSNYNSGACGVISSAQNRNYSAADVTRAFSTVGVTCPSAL
TEST_SUMMARY: biochemical
Parameters: species or system P. aeruginosa
REPORTED_CONDITIONS: IC50 against LasB
Lab note: anything with IC50 below 2000 nM is marked yes (1); values at 2000 nM or higher are marked no (0).

Prompt: Please indicate whether the reported IC50 of CC(C)CC(C(=O)N[C@H](C(=O)Nc1ccc(Cl)c(Cl)c1)C(C)C)P(=O)(O)O (mixture of isomers) is strictly below 2000 nM.
Response: yes (1)

Prompt: Please indicate whether the reported IC50 of CCC(C)C(S)C(=O)Nc1ccc(Cl)c(Cl)c1 (centres unmarked) is strictly below 2000 nM.
Response: no (0)

Prompt: Please indicate whether the reported IC50 of O=C(Nc1ccc(C(F)(F)F)cc1)C(CC1CCCCC1)P(=O)(O)O (centres unmarked) is strictly below 2000 nM.
Response: yes (1)

Prompt: Please indicate whether the reported IC50 of O=C(Nc1ccc(C(F)(F)F)cc1)C(Cc1ccccc1)P(=O)(O)O (centres unmarked) is strictly below 2000 nM.
Response: yes (1)

Prompt: Please indicate whether the reported IC50 of Cc1ccc(NC(=O)C(CC(C)C)n2nccn2)cc1 (centres unmarked) is strictly below 2000 nM.
Response: no (0)

---
Prompt: Please indicate whether the reported IC50 of CC(C)CC(C(=O)N[C@@H](CC1CCOCC1)C(=O)Nc1ccc(Cl)c(Cl)c1)P(=O)(O)O (some centres unmarked) is strictly below 2000 nM.
Response: yes (1)

Prompt: Please indicate whether the reported IC50 of CC(=O)c1ccc(NC(=O)C(C)S)cc1 (centres unmarked) is strictly below 2000 nM.
Response: no (0)

Prompt: Please indicate whether the reported IC50 of CC(C)C[C@@H](C(=O)N[C@@H](Cc1ccccn1)C(=O)Nc1ccc(Cl)c(Cl)c1)P(=O)(O)O is strictly below 2000 nM.
Response: yes (1)

Prompt: Please indicate whether the reported IC50 of CC(C)CC(C(=O)Nc1ccc(C(F)(F)F)cc1)P(=O)(O)O (centres unmarked) is strictly below 2000 nM.
Response: yes (1)

Prompt: Please indicate whether the reported IC50 of CC(C)CC(C(=O)N1CCN(c2ccc(Cl)cc2)CC1)P(=O)(O)O (centres unmarked) is strictly below 2000 nM.
Response: yes (1)

Prompt: Please indicate whether the reported IC50 of COc1ccccc1NC(=O)C(S)CC(C)C (centres unmarked) is strictly below 2000 nM.
Response: yes (1)
